Tested on: HEK-293T
assay.details: Incucyte cell viability with HEK293T; note: unitless GR value; below 1 slowed growth and below 0 cell loss
Type: toxicity, cell-based
condition.notes: human, 6 h, 10 µM, compound concentration 10 uM, replicate number 1
Decision: Growth Rate compared against 0.4; not below it gives TRUE, below it gives FALSE.

Query: Test whether the compound `Cc1[nH]c2c(N3CCCCC3)c(-c3ccccc3)nn2c(=O)c1-c1ccc(O)cc1` records Growth Rate of 0.4 or higher.
Response: TRUE

Query: Could you please find out whether `CC(=O)N(CCN(C)C)c1ccc(N/C(=C2\C(=O)Nc3cc(Cl)ccc32)c2ccccc2)cn1` has Growth Rate that meets 0.4 or exceeds it?
Response: FALSE

Query: Could you please find out whether `O=C(Nc1ccccc1C(=O)O)c1cc(S(=O)(=O)c2ccccc2)ccc1Cl` has Growth Rate that meets 0.4 or exceeds it?
Response: TRUE

Query: Assess whether reported Growth Rate for `C[C@@H]1COCCN1c1cc(=O)n2c(n1)N(Cc1cncc(Cl)c1)[C@H](C(F)(F)F)CC2` sits at 0.4 or higher.
Response: FALSE

Query: Reported Growth Rate at or above 0.4? `O=C(Nc1ccc(N2CCC(C(=O)N3CCOCC3)CC2)cc1)c1cnc(Oc2ccccc2)nc1`
Response: FALSE

Query: Does Growth Rate meet or surpass 0.4 for CC(C)c1ccc(CC(=O)N[C@H](C)c2ccc(OCC(F)(F)F)cn2)cc1 [SUVECALTAMIDE] ?
Response: FALSE

Query: Entry `Nc1ncnc2c1c(I)cn2[C@@H]1O[C@H](CO)[C@@H](O)[C@H]1O` : is its Growth Rate no less than 0.4?
Response: FALSE

Query: # bool: Growth Rate of `Cc1cccc(CC(=O)N2CCc3c2ccc(-c2cn(C)c4ncnc(N)c24)c3F)n1` >= 0.4
Response: FALSE

Query: Would you say `O=C(O)C[C@H]1CCn2c1c(Sc1ccc(Cl)cc1)c1ccc(F)cc12` shows Growth Rate at minimum 0.4?
Response: TRUE

Query: hey, is Growth Rate for this one >= 0.4? `Cn1cncc1-c1cn(-c2cccc(C(=O)Nc3cccc(C(F)(F)F)c3)c2)nn1`
Response: FALSE

Query: Determine whether this compound has Growth Rate no lower than 0.4: CC(C)CNc1nc(N2CCN(CC3CCCOC3)CC2)ncc1C(=O)NCc1ccccc1 (stereo not drawn)
Response: TRUE

Query: Is the recorded value of Growth Rate equal to or greater than 0.4 for this compound? `CCO[C@@H](Cc1ccc(OCCc2ccc(OS(C)(=O)=O)cc2)cc1)C(=O)O`
Response: TRUE

Query: Reported Growth Rate at or above 0.4? `FC(F)(F)c1ccccc1-c1cc(C(F)(F)F)c2[nH]c(C3=NOC4(CCCCC4)C3)nc2c1`
Response: FALSE

Query: Does the reported Growth Rate for `COc1cc([N+](=O)[O-])ccc1NC(=O)c1ccccc1O` fall at or above the 0.4 mark?
Response: FALSE

Query: Assess whether reported Growth Rate for `N#Cc1ccnc(Nc2cc(C3CCN(C4COC4)CC3)cc(N3CCC(F)(F)C3)n2)c1` sits at 0.4 or higher.
Response: TRUE

Query: Reported Growth Rate at or above 0.4? `CCc1cc2c(cc1N1CCC(N3CCOCC3)CC1)C(C)(C)c1[nH]c3cc(C#N)ccc3c1C2=O`
Response: TRUE

Query: Determine whether this compound has Growth Rate no lower than 0.4: `Cc1ccc(NC(=O)c2ccc3cnccc3c2)cc1C(=O)Nc1cnc(Nc2cccc(NC3CCN(C(=O)/C=C/CN(C)C)CC3)c2)nc1`
Response: FALSE

----------
System: HEK-293T
assay.details: Incucyte cell viability with HEK293T; note: unitless GR value; below 1 slowed growth and below 0 cell loss
Assay type: toxicity, cell-based
condition.notes: human, 12 h, 10 µM, compound concentration 10 uM, replicate number 1
Exercise: for every item that follows, state its recorded Growth Rate.

Query: Let me know recorded Growth Rate for `COc1ccc(C(F)(F)F)cc1NC(=O)Nc1ccc(Oc2cc(C)nc(N)n2)c2ccccc12` , thanks.
Response: 0.67

Query: Give Growth Rate for the following compound: COc1cc(F)ccc1-c1cc(Nc2cc(CS(C)(=N)=O)ccn2)ncc1F (configuration not stated)
Response: -0.15

Query: Input `CC(C)C[C@H](NC(=O)c1cc2ccccc2s1)C(=O)N1CCN(C(=O)[C@H](CO)NS(=O)(=O)c2ccc(Cl)cc2Cl)CC1` , output reported Growth Rate.
Response: 0.69

Query: Please report the measured Growth Rate for `Cn1nc(-c2ccc(C(N)=O)cc2)c2ccccc2c1=O`
Response: 0.75

Query: Annotate the compound CC[N+](CC)(CC)CCOc1ccc(/C=C/c2ccccc2)cc1.[I-] [STILONIUM IODIDE] with its measured Growth Rate.
Response: -0.18

Query: Give me measured Growth Rate, please, for this compound: `CC[C@]1(C)C[C@@H](OC(=O)CSc2nnc(N)[nH]2)[C@@]2(C)[C@H](C)CC[C@@]3(CCC(=O)[C@H]32)[C@@H](C)[C@@H]1O`
Response: 0.86

Query: Specify reported Growth Rate for the compound shown: CCOC(=O)N1CCC(CN(Cc2ccc(Cl)cc2)Cc2ccc([N+](=O)[O-])s2)C1 (configuration not stated)
Response: 0.42

Query: Supply Growth Rate value. Item: `CCS(=O)(=O)Nc1cccc(Oc2cc(F)cc(Nc3ccc(I)cc3F)c2NS(=O)(=O)C2CC2)c1`
Response: 0.34

Query: # return recorded Growth Rate for input `CN(C)[C@H]1CCc2nc(NC(=O)c3cccc(Cn4cc(-c5ccc(C#N)cc5)cn4)c3)sc2C1.O=C(O)C(F)(F)F`
Response: 0.52

Query: Give recorded Growth Rate. O=C(O)c1ccc(OCCCc2ccc(OCCCCOC3CCCCC3)cc2)c(C(=O)NC2CCCC(C(=O)O)C2)c1 (configuration not stated)
Response: 0.94

Query: # return recorded Growth Rate for entry `CCC(C)(C)NC(=NC#N)Nc1cccnc1`
Response: 0.42

Query: Output Growth Rate of `CN(C)[C@H]1CC[C@H](Nc2ncc3ncnc(Nc4ccc(F)c(Cl)c4)c3n2)CC1`
Response: -0.11

Query: Write down Growth Rate measured for item `COc1cc(C(=O)NC2CCN(C)CC2)ccc1Nc1ncc2c(n1)N(C1CCCC1)CC(F)(F)C(=O)N2C`
Response: 0.86

Query: Answer with the recorded Growth Rate of `CN(CCCCCCC1=C(c2cc(F)cc(F)c2)CCCc2cc(O)ccc21)CCCCS(=O)(=O)CCCC(F)(F)F` only.
Response: -0.48

Query: Return Growth Rate for the following compound: `COc1ccccc1-c1cc(Nc2cccc(CS(N)(=O)=O)c2)ncn1`
Response: -0.07

Query: Respond only with Growth Rate recorded for `CC1(C)OC(=O)c2ccc(Nc3ncc(-c4nnco4)c(N[C@H](CO)c4ccccc4)n3)cc21`
Response: 0.23

Query: Return reported Growth Rate. Input compound: `O=C(NC[C@@H]1[C@H]2CN(C(=O)OCc3cc(C(F)(F)F)cc(C(F)(F)F)c3)C[C@@H]12)c1ccc2[nH]nnc2c1`
Response: 0.5

----------
System: Fibroblast
assay.details: Incucyte cell viability with human fibroblast; note: unitless GR value; below 1 slowed growth and below 0 cell loss
Format: toxicity, cell-based
condition.notes: 24 h, 10 µM, compound concentration 10 uM, replicate number 2
Would you kindly list Growth Rate for each of these compounds?

Query: Output measured Growth Rate for this item: `N#CN1CC[C@@H](C(=O)Nc2nc3c(s2)CN(C(=O)CN=[N+]=[N-])CC3)C1`
Response: 0.77

Query: Quickly give me recorded Growth Rate for `Cn1cnc(Cn2ccc3ccc(CNCc4[nH]c5ccccc5c4[C@@H]4NC(=O)c5ccc(O)cc54)cc32)c1`
Response: 0.88

Query: Assign Growth Rate to the following record: `CS(=O)(=O)NC(=O)CCC/C=C\C[C@H]1C(=O)C[C@@H](O)[C@@H]1/C=C/[C@@H](O)COc1ccccc1`
Response: 0.63

Query: State its Growth Rate: `C[C@@H](CN1CCC(Cc2ccccc2)CC1)[C@@H](O)c1ccc(O)cc1`
Response: 0.68

Query: Check the records and state Growth Rate for `CCN(CC)CCO[C@H]1CC[C@@]2(C)C(=CC[C@@H]3[C@@H]2CC[C@]2(C)C(=O)CC[C@@H]32)C1.Cl`
Response: -0.11

Query: Supply Growth Rate value. Item: `Cc1ccc(-c2c(C(=O)CF)n(CCCO)c3ncnc(N)c23)cc1`
Response: 0.41

Query: Annotate the compound `CN(C)[C@H]1CC[C@H](Nc2ncc3ncnc(Nc4ccc(F)c(Cl)c4)c3n2)CC1` with its measured Growth Rate.
Response: -0.13

Query: State its Growth Rate for this compound: `CCNCCNC(=O)c1c(C)[nH]c(/C=C2\C(=O)Nc3ccc(F)cc32)c1C`
Response: 0.1

Query: Report measured Growth Rate; entry is `C=CC(=O)Nc1cccc(C)c1Nc1ncc2cc(-c3c(Cl)c(OC)cc(OC)c3Cl)ccc2n1`
Response: 0.33

Query: Give me measured Growth Rate, please, for this compound: `CN(C)CCCn1cc(C2=C(c3c[nH]c4ccccc34)C(=O)NC2=O)c2ccccc21`
Response: 0.41

Query: Return value of Growth Rate for input `O=c1cccc2n1C[C@@H]1CNC[C@H]2C1` , no commentary.
Response: 0.81

Query: Kindly indicate its recorded Growth Rate. Item: CC(CNS(=O)(=O)C(C)C)c1ccc(-c2ccc(C#N)cc2)cc1 (stereo not given)
Response: 0.51

Query: Dear colleague, please send me the reported Growth Rate for `CC(C)(C)c1ccc(-c2coc3ccc(-c4cn[nH]c4)nc23)cc1` when you can.
Response: -0.11

Query: Return Growth Rate (reported value) for this compound: CC/C(=C(\c1ccccc1)c1ccc(OCCN(C)C)cc1)c1ccccc1.O=C(O)CC(O)(CC(=O)O)C(=O)O [TAMOXIFEN CITRATE]
Response: -0.21

Query: Kindly indicate its recorded Growth Rate. Item: CCOC(=O)C1=C(C)NC(C)=C(C(=O)OC)C1c1cccc([N+](=O)[O-])c1 (stereo not given)
Response: 0.95

Query: Fill in reported Growth Rate for this entry: `CN[C@@H]1CC[C@@H](c2ccc(Cl)c(Cl)c2)c2ccccc21.Cl`
Response: -0.2

Query: # return recorded Growth Rate for input `COc1cc([N+](=O)[O-])ccc1NC(=O)c1ccccc1O`
Response: 0.64

Query: Consider the compound `CCn1c(=O)c2c(C)c(C(=O)N3CCC(O)CC3)sc2n(CCC(F)(F)F)c1=O` and give its recorded Growth Rate.
Response: 0.97

Query: Recall and state the measured Growth Rate for `Cc1nc2ccc(Oc3ccc(F)cc3)cc2c(=O)n1C[C@H]1CCCN(C(C)C)C1.Cl` .
Response: 0.73

Query: Give recorded Growth Rate. `CC(C)(C)c1cc(C(C)(C)C)c(NC(=O)c2c[nH]c3ccccc3c2=O)cc1O`
Response: 0.91

Query: Check the records and state Growth Rate for CN1[C@@H](CC(=O)c2ccccc2)CCC[C@H]1C[C@H](O)c1ccccc1.Cl [LOBELINE HYDROCHLORIDE]
Response: 0.83

Query: Give reported Growth Rate value for `FC(F)(F)c1ccc(Nc2ncnc3cc(-c4ncccc4C(F)(F)F)ccc23)cc1`
Response: 0.37

Query: Indicate its recorded Growth Rate; the compound in question is CN(C(=O)CCOCCOCCOCCOCCNc1cccc2c1C(=O)N(C1CCC(=O)NC1=O)C2=O)[C@H]1CC[C@@]2(C)[C@@H](CC[C@@H]3[C@@H]2CC[C@]2(C)[C@@H](c4ccc5ccncc5c4)CC[C@@H]32)C1 (stereo not given in full)
Response: 0.91

Query: Using known records, supply Growth Rate for Cc1[nH]nc2ccc(-c3cncc(OCC(N)Cc4ccccc4)c3)cc12 (stereo not given)
Response: 0.73

Query: Name the recorded Growth Rate of the compound listed here: CC(C(=O)Nc1cc(C#N)ccc1CCCC(=O)O)c1ccc(F)c2ccccc12 (stereo not given)
Response: 0.93

Query: Tell me its Growth Rate given `Cc1nccn1-c1ccc(Sc2cccc(C3(C(N)=O)CCOCC3)c2)cc1` as the entry.
Response: 0.71

Query: For `Cc1cn(CCN2CCN(c3ccccc3-c3cc(C#N)cc(C(=O)NCCCN4CCCC4)c3)CC2)c2ccccc12` , write its Growth Rate.
Response: -0.71

Query: Could you please provide reported Growth Rate for `COc1cc2ncnc(Nc3ccc(F)c(Cl)c3)c2cc1OCCN(C)C[C@H](C)O` ? Thanks!
Response: 0

Query: Please give the documented Growth Rate of `N#Cc1cccc(-c2nc(-c3cccnc3)no2)c1`
Response: 0.92

Query: Name the recorded Growth Rate of the item `CN1CC[C@@]23CCCC[C@@H]2[C@@H]1Cc1ccc(O)cc13.O=C(O)C(O)C(O)C(=O)O` in your answer.
Response: 0.19

Query: Please report the measured Growth Rate for `Cc1cc(NC(=O)c2cccc(NC(=O)/C=C/CN(C)C)c2)ccc1Nc1nccc(-c2cccnc2)n1`
Response: -0.29

Query: Please give measured Growth Rate of the following entry: CC1CN(CC(=O)N2CC(C)(C)c3nc(CO)c(Cc4ccc(F)cc4)cc32)C(CN2CCOCC2C)CN1 (stereo not given)
Response: 0.9

Query: Entry Cl.Cl.Fc1ccc([C@@H]2CCNC[C@H]2COc2ccc3c(c2)OCO3)cc1.Fc1ccc([C@@H]2CCNC[C@H]2COc2ccc3c(c2)OCO3)cc1.O [PAROXETINE HYDROCHLORIDE] needs its Growth Rate filled in; supply it.
Response: 0.62

Query: Look up Growth Rate of `CN1CCN(c2ccc(-n3cc(-c4ccncc4OCC4CCNCC4)cn3)cc2)CC1` and report it.
Response: 0.28

Query: Give the reported value of Growth Rate for this record: `O=C(Nc1cccc(Nc2nccc(Nc3cccc(C(F)(F)F)c3)n2)c1)C1CC1`
Response: -0.55

Just for reference, ChEMBL document CHEMBL5303304 is where these values come from.
